substrate: C=CC1=C(C)/C(=C/c2[nH]c(/C=C3N=C(/C=C4\NC(=O)C(C)=C4C=C)C(C)=C\3CCC(=O)O)c(CCC(=O)O)c2C)NC1=O; assay: steady-state kinetics, A450 bilirubin formation; format: biochemical, Synechocystis sp. PCC 6803; conditions: 100 μM NADPH, 100 mM citrate pH 5.75

| protein | unitAbbrev | kcat/Km |
| --- | --- | --- |
| Syn BVR (Synechocystis sp. PCC 6803 substr. Kazusa; T169A) (protein, full length, 328 residues; N-terminal His6 tag (pET15b), E. coli C41(DE3); tag cut with thrombin for crystals) MSENFAVATPVRVGIVGTGYAAQRRAEVFRGDRRSQLVSFWGNSEANTAKFADTFGVRPQQSWQALINDPEIDLVLIATINQLHGAIAEAALQAGKHVVLEYPLALTYAMGKKLQQLAREKGKLLHVEHIELLGGVHQAIRQNLGKIGEVFYARYSTIMGQNPAPQRWAYHHQQFGFPLVAALSRISRFTDLFGTVQQVDAQCRFWDQPNPEYFRACLATAYLQFNNGLKAEVIYGKGEVFHQNERIFTLHGDRGTLIFVGETGRLIQGQTETEITVGSRRGLFRQDTEAVLDYLTTGKPLYVDLEASLYALEVADLCAQACGYKVEN | M⁻¹ s⁻¹ | 3.9e+06 |
| Syn BVR (Synechocystis sp. PCC 6803 substr. Kazusa; R185K) (protein, full length, 328 residues; N-terminal His6 tag (pET15b), E. coli C41(DE3); tag cut with thrombin for crystals) MSENFAVATPVRVGIVGTGYAAQRRAEVFRGDRRSQLVSFWGNSEANTAKFADTFGVRPQQSWQALINDPEIDLVLIATINQLHGAIAEAALQAGKHVVLEYPLALTYAMGKKLQQLAREKGKLLHVEHIELLGGVHQAIRQNLGKIGEVFYARYSTIMGQNPAPQRWTYHHQQFGFPLVAALSKISRFTDLFGTVQQVDAQCRFWDQPNPEYFRACLATAYLQFNNGLKAEVIYGKGEVFHQNERIFTLHGDRGTLIFVGETGRLIQGQTETEITVGSRRGLFRQDTEAVLDYLTTGKPLYVDLEASLYALEVADLCAQACGYKVEN | M⁻¹ s⁻¹ | 70000 |
| Syn BVR (Synechocystis sp. PCC 6803 substr. Kazusa; R185A) (protein, full length, 328 residues; N-terminal His6 tag (pET15b), E. coli C41(DE3); tag cut with thrombin for crystals) MSENFAVATPVRVGIVGTGYAAQRRAEVFRGDRRSQLVSFWGNSEANTAKFADTFGVRPQQSWQALINDPEIDLVLIATINQLHGAIAEAALQAGKHVVLEYPLALTYAMGKKLQQLAREKGKLLHVEHIELLGGVHQAIRQNLGKIGEVFYARYSTIMGQNPAPQRWTYHHQQFGFPLVAALSAISRFTDLFGTVQQVDAQCRFWDQPNPEYFRACLATAYLQFNNGLKAEVIYGKGEVFHQNERIFTLHGDRGTLIFVGETGRLIQGQTETEITVGSRRGLFRQDTEAVLDYLTTGKPLYVDLEASLYALEVADLCAQACGYKVEN | M⁻¹ s⁻¹ | 100000 |
| Syn BVR (Synechocystis sp. PCC 6803 substr. Kazusa; Y102F) (protein, full length, 328 residues; N-terminal His6 tag (pET15b), E. coli C41(DE3); tag cut with thrombin for crystals) MSENFAVATPVRVGIVGTGYAAQRRAEVFRGDRRSQLVSFWGNSEANTAKFADTFGVRPQQSWQALINDPEIDLVLIATINQLHGAIAEAALQAGKHVVLEFPLALTYAMGKKLQQLAREKGKLLHVEHIELLGGVHQAIRQNLGKIGEVFYARYSTIMGQNPAPQRWTYHHQQFGFPLVAALSRISRFTDLFGTVQQVDAQCRFWDQPNPEYFRACLATAYLQFNNGLKAEVIYGKGEVFHQNERIFTLHGDRGTLIFVGETGRLIQGQTETEITVGSRRGLFRQDTEAVLDYLTTGKPLYVDLEASLYALEVADLCAQACGYKVEN | M⁻¹ s⁻¹ | 700000 |
| Syn BVR (Synechocystis sp. PCC 6803 substr. Kazusa) (protein, full length, 328 residues; N-terminal His6 tag (pET15b), E. coli C41(DE3); tag cut with thrombin for crystals) MSENFAVATPVRVGIVGTGYAAQRRAEVFRGDRRSQLVSFWGNSEANTAKFADTFGVRPQQSWQALINDPEIDLVLIATINQLHGAIAEAALQAGKHVVLEYPLALTYAMGKKLQQLAREKGKLLHVEHIELLGGVHQAIRQNLGKIGEVFYARYSTIMGQNPAPQRWTYHHQQFGFPLVAALSRISRFTDLFGTVQQVDAQCRFWDQPNPEYFRACLATAYLQFNNGLKAEVIYGKGEVFHQNERIFTLHGDRGTLIFVGETGRLIQGQTETEITVGSRRGLFRQDTEAVLDYLTTGKPLYVDLEASLYALEVADLCAQACGYKVEN | M⁻¹ s⁻¹ | 3.9e+06 |

Recorded values, source paper PMC5309722.
